Where do the numbers come from? From the supplement of paper PMC9170038.

Tested on: MS2 coat protein
Protocol text: apparent KD of MS2 coat protein; designed switch direction (-1 OFF switch, 1 ON switch): -1; higher = weaker reporter binding
Condition details: input ligand: none

Seq text	apparent KD of MS2 coat protein, nM
CCCUUGUGAGGAUAUUCUUAAAAUGCUAACCACAAUUUUAUGAAGAAGGCACAUGAGGAUCACCCAUGUUUCUC [mod1] (Eterna round: R97, puzzle: Exclusion 4)	96.4
AGUCCAGACGGACCCUCUAACAUGAGGAUCACCCAUGUAGCGGAGGAUAUCCGAAUUUGGGCGACGGAGAAGGCCGUUGCAGGG [Edsosobi] (Eterna round: R96, puzzle: Exclusion NG 3)	27.5
ACAUGAGGAUCACCCAUGUUAACGAAAAGGCUCAUGUAGAGUGAGGAUAUGUGAGACGAACGAGAACAGAAGGCACAAGACAGG [Deportation 2 - Jieux - Exclusion NG 3] (Eterna round: R96, puzzle: Exclusion NG 3)	22.3
AGAGAAUAGUCAGGAUAUGUGAAUAGAUAGAGAACAGAAGGGACACAUGAGGAUCACCCAUGUGAAGUCUUGAGGCUGCAUGGA [Prohibition 22 - Jieux - Exclusion NG 1] (Eterna round: R96, puzzle: Exclusion NG 1)	39
